Tested on: Aedes aegypti mosquitoes, insecticide-susceptible Orlando strain
Type: in vivo
Details: 1 h; (OR)
OBSERVABLE: 1 h Repellency EC50, μg/cm^2 (μg/cm^2)
Respond numerically; units are μg/cm^2 and should not be typed.

Please review the following examples before continuing.
compound=CCC(=O)N(C(=O)CC)c1cccc(OC(F)(F)F)c1 observable="1 h Repellency EC50, μg/cm^2" measurement_unit=μg/cm^2 test_result=36
compound=O=C(Nc1ccc(F)cc1)C(F)(F)C(F)(F)F observable="1 h Repellency EC50, μg/cm^2" measurement_unit=μg/cm^2 test_result=4.5
compound=O=C(CCl)Nc1ccccc1C(F)(F)F observable="1 h Repellency EC50, μg/cm^2" measurement_unit=μg/cm^2 test_result=14
compound=O=C(Nc1cc(F)c(F)c(F)c1)C(F)(F)C(F)(F)C(F)(F)F observable="1 h Repellency EC50, μg/cm^2" measurement_unit=μg/cm^2 test_result=2.9
compound=CC(=O)Nc1ccccc1C(F)(F)F observable="1 h Repellency EC50, μg/cm^2" measurement_unit=μg/cm^2 test_result=26

Param item = CN(C(=O)C(F)(F)C(F)(F)C(F)(F)F)c1cc(Cl)nc(Cl)c1 ; retrieve measured 1 h Repellency EC50, μg/cm^2.
10

Param item = O=C(Nc1cc(C(F)(F)F)ccn1)C(F)(F)C(F)(F)C(F)(F)F ; retrieve measured 1 h Repellency EC50, μg/cm^2.
49

Param item = CCC(=O)Nc1ccccc1OC(F)(F)F ; retrieve measured 1 h Repellency EC50, μg/cm^2.
15

Param item = CCC(=O)Nc1cc(F)c(F)c(F)c1 ; retrieve measured 1 h Repellency EC50, μg/cm^2.
23

Param item = O=C(Nc1cc(F)c(F)c(F)c1)C(F)(F)C(F)(F)F ; retrieve measured 1 h Repellency EC50, μg/cm^2.
22.1

Param item = C/C=C/C1C(C(=O)OCc2c(F)c(F)c(COC)c(F)c2F)C1(C)C (centres unmarked) [Metofluthrin, metofluthrin, reference compound] ; retrieve measured 1 h Repellency EC50, μg/cm^2.
0.3
